assay: antimalarial activity against Dd2 strain (AID 2302);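 note: 0% = DMSO untreated growth and 100% = chloroquine plus artemisinin killed control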
conditionSet: P. falciparum Dd2 in RBCs, LDH growth readout, 72 h; at 2 µM
Activity calls are given as the source filed them.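 Rule for the calls: active = growth inhibition above 50% at the single 2 µM test dose, taken to imply half-maximal potency below 2 µM; inactive = the rest.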
Return exactly one item of label 1 (active), label 0 (inactive)

Prompt line: GET /call?item= CC(C)(C(=O)Nc1ccc(C2CCC(NCC3CC3)CC2)c(Cl)c1)c1ccc(C(F)(F)F)cc1 (stereo not given) returns the recorded outcome of this test.
Response line: label 0

Prompt line: How was O=S(=O)(Nc1cccc(CCN2CCCCC2CCN2CCCC2)c1)c1ccc(Oc2ccccc2)cc1 (stereo not given) classified in this test?
Response line: label 0

Prompt line: Outcome logged for Oc1ccccc1CN1CCC2(CCCN(Cc3ccccc3F)C2)C1 (stereo not given) in this assay:
Response line: label 1

Prompt line: Tell me the assay call for CCOc1cc(C)ccc1C1CCN(CCN2CCC(CNC(=O)c3ccc(-c4ccc(C(F)(F)F)cc4)cc3)CC2)CC1 please.
Response line: label 1

Prompt line: So what was the verdict on CCNc1cc(C(=O)N[C@@H](Cc2ccccc2)[C@H](O)CN[C@@H]2CCc3ccccc32)cc(N2CCCC2=O)c1 in this test?
Response line: label 1

###

assay: inhibition of 3D7 malaria parasite growth – strain 3D7 (AID 2306);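 note: 0% = DMSO wells and 100% = chloroquine plus artemisinin control wells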
conditionSet: P. falciparum 3D7 erythrocytic growth, LDH absorbance, 72 h; at 2 µM; stronger effect = higher value
measuredEndpoint: growth inhibition (%)
The reply should contain only the number, in %.

Prompt line: Any idea what growth inhibition was measured for CC1(C)N=C(N)N=C(N)N1OCCOc1ccc2ccccc2c1 ?
Response line: 93

Prompt line: Please give the measured growth inhibition for this molecule: Cc1ccc(Nc2ccnc(Nc3ccc(F)c(Cl)c3)n2)cc1O
Response line: 101

Prompt line: Reported growth inhibition, molecule Cc1[nH]c(C)c(-c2ccc(Oc3cccc(Cl)c3)cc2)c(=O)c1Br : ____
Response line: 98

###

assay: antimalarial activity against Dd2 strain (AID 2302);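 note: 0% = DMSO untreated growth and 100% = chloroquine plus artemisinin killed control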
conditionSet: P. falciparum Dd2 in RBCs, LDH growth readout, 72 h; at 2 µM; stronger effect = higher value
Rule: growth inhibition of 90% or more gives rule met; anything lower gives rule not met.

Prompt line: Item NCCNc1ccc([N+](=O)[O-])cc1C(=O)Nc1cccc(C(F)(F)F)c1 with growth inhibition of 90% or above?
Response line: rule not met

Prompt line: Check the entry CN(C)c1cc(NC(=O)Nc2ccc(SC(F)(F)F)cc2)c2ccccc2n1 : does growth inhibition equal or exceed 90%?
Response line: rule met

Prompt line: Determine whether this molecule has growth inhibition no lower than 90%: CN1CCC(C(=O)Nc2cccc(-c3ccc(-c4nc5ccc(C(F)(F)F)cc5[nH]4)cc3)c2)CC1
Response line: rule met

Prompt line: Decide: is the reported value of growth inhibition for CC(=O)N(C)c1cccc(C(=O)Nc2cccc(-c3cccc(-c4nc5ccc(C(F)(F)F)cc5[nH]4)c3)c2)c1 equal to or greater than 90%?
Response line: rule not met

Prompt line: Check if growth inhibition >= 90% (inclusive). Item: COc1ccc(-c2ccc(NC(=O)c3ccc(Cl)cc3)cc2)cc1CN1CCC(O)CC1
Response line: rule not met

Prompt line: Hi, just wondering whether O=C(NCCCCCN1CCCN(C(=O)Nc2ccc(F)c(C(F)(F)F)c2)CC1)[C@@H]1C[C@H]1c1ccc(Cl)c(Cl)c1 shows growth inhibition of 90% or higher.
Response line: rule not met

Prompt line: Reported growth inhibition reaches at least 90% for Cc1cccc2[nH]c(-c3cccc(-c4ccc(NC(=O)Nc5ccc(F)c(F)c5F)cc4)c3)nc12 ?
Response line: rule met

Prompt line: Would you say CCNc1cc(C(=O)N[C@@H](Cc2ccccc2)[C@H](O)CNC23CC4CC(CC(C4)C2)C3)cc(N2CCCCS2(=O)=O)c1 shows growth inhibition at minimum 90%?
Response line: rule met

Prompt line: Answer whether growth inhibition of Cc1cc2ccccc2c(CON2C(N)=NC(N)=NC2(C)C)c1C is greater than or equal to 90%.
Response line: rule not met

Prompt line: Please check the record Cc1ccc(-c2ccc3c(c2)C=C(C(=O)NC2CCN(CCNC(=O)c4cccs4)CC2)CCC3)cc1 and state if its growth inhibition is at or above 90%.
Response line: rule not met

Prompt line: Could you verify whether the entry Cc1ccoc1C(=O)Nc1cccc(-c2cccc(-c3nc4ccc(C(F)(F)F)cc4[nH]3)c2)c1 shows growth inhibition of no less than 90%?
Response line: rule not met

Prompt line: Does growth inhibition meet or surpass 90% for Cc1nc(N)nc(N)c1CCCOc1ccc(Br)cc1 ?
Response line: rule not met
